Origin of values: ChEMBL document CHEMBL4715832

Experiment: Stability in human liver microsomes assessed as parent compound remaining at 2 uM measured after 40 mins in presence of cofactor
Format: ADME, Microsome
Settings: read-out: Stabilty
ENDPOINT_LABEL: remaining at 40 min, 2 µM (%)
Answers are plain numbers, in %.

Ask | # query: remaining at 40 min, 2 µM of entry "COc1cc2c(-c3cc(OC)c(OC)c(OC)c3)nccc2cc1O"
Reply | 69

* * *

Target: CYP2C9 (Homo sapiens)
Sequence (P11712 whole entry): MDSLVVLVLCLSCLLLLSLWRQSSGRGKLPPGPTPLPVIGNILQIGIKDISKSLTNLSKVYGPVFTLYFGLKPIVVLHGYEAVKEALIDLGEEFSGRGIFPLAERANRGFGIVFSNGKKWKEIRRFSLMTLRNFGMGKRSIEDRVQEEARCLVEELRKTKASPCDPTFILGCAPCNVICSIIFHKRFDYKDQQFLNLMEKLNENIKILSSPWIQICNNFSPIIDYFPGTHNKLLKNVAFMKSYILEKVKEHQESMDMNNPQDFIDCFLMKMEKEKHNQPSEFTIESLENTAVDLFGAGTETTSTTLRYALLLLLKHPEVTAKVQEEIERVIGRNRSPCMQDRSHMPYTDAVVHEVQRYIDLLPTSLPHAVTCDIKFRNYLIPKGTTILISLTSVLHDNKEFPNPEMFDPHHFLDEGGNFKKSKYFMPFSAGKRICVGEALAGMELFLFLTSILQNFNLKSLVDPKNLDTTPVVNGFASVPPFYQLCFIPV
Experiment: Inhibition of human CYP2C9 at 10 uM relative to control
Format: ADME
ENDPOINT_LABEL: inhibition at 10 µM (%)
Numbers only, in %.

Ask | # query: inhibition at 10 µM of entry "COc1cc2c(-c3cc(OC)c(OC)c(OC)c3)nccc2cc1O"
Reply | 16
